TARGET UNDER TEST: T1, hPRLR.mFc (soluble dimeric human PRLR) (Homo sapiens, UniProt P16471)
T1 construct: dimeric (hPRLR.mFc)
T1 sequence (P16471 with tags, fused parts or gaps): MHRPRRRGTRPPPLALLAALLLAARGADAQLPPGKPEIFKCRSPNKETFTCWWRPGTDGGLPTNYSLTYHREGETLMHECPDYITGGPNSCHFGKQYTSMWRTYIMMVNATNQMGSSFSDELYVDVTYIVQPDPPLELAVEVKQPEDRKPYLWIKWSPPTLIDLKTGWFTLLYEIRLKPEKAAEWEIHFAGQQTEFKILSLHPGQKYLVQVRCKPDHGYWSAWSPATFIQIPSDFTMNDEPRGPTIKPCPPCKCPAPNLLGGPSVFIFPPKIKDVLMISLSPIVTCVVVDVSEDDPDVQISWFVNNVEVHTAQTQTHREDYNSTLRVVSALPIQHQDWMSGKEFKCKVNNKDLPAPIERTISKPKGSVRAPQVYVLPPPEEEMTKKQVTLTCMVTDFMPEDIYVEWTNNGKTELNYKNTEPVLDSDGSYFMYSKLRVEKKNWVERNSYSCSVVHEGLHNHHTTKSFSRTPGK
ASSAY NAME: Surface plasmon resonance (Biacore T200), mAb-capture format
Assay type: binding
EXPERIMENTAL SETUP: 37° C., antibody-capture format, analyte hPRLR.mFc
EXPERIMENTAL READOUT: Kd

Problem: Which Kd is reported for this molecule? H1H6976N: human IgG1 Fc form of H2M6976N; anti-PRLR; HCVR/LCVR SEQ ID NOs 386/394 (antibody, V domains shown, human IgG1 Fc) VH: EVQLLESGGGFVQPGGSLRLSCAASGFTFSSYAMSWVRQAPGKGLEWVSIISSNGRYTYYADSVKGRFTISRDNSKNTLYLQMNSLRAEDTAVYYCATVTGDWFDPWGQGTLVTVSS VL: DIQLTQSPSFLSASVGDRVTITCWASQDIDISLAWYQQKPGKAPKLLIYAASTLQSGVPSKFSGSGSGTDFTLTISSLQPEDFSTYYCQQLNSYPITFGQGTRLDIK
Result: 0.102 nM
